- System: MV-4-11 (carrying MLL-AF4)
- experimentSummary: Inhibition of proliferation of human tumor cells (Alamar Blue, 7 days), MV-4-11
- Assay type: cell-based
- recordedConditions: Homo sapiens, MV4-11, 168 h, MV-4-11 cells (carrying MLL-AF4), method calls the value GI50
- Procedure: Experimental Example 2: Evaluation of Inhibitory Activity of Compounds Against Proliferation of Human Tumor Cells […] Seven days after compound addition (on Day 7), an Alamar Blue assay reagent (MCE, HY-111391 / CS-0040317) was added to measure the fluorescence intensity in each well. Wells containing the cells in the growth medium supplemented with 0.1% DMSO (Day 7) served as high-read control wells. […]
pIC50: −log10 of the molar value.
Label Satisfied when pIC50 is at or above 8; anything below gets Not satisfied.

compound=CCS(=O)(=O)N[C@H]1CC[C@H](CN2CCC(c3cc(-c4ccc(F)cc4C(=O)N(CC(F)F)C(C)C)c4cnc(C)n4c3)CC2)CC1 studysystem="MV-4-11 (carrying MLL-AF4)" grouplabel="Not satisfied"
compound="COC1CCN(CCCC(C(C)C)N2CC(c3cc(-c4ccc(F)cc4C(=O)N4CCOCC4C)c4c(F)nc(C)n4c3)C2)C1 (centres unmarked)" studysystem="MV-4-11 (carrying MLL-AF4)" grouplabel=Satisfied
compound=CCN(C(=O)c1cc(F)ccc1-c1cc(C2CN([C@H](CCCN(C)CCOC)C(C)C)C2)cn2c(C)nc(F)c12)C(C)C studysystem="MV-4-11 (carrying MLL-AF4)" grouplabel=Satisfied
compound=CCN(C(=O)c1cc(F)ccc1-c1cc(N2CCC(NCc3ccc(-c4cc(OC)c(OC)nn4)cc3F)CC2)cn2cncc12)C(C)C studysystem="MV-4-11 (carrying MLL-AF4)" grouplabel="Not satisfied"
compound=CCN(C(=O)c1cc(F)ccc1-c1cc(C2CN([C@H](CCCN3C[C@H]4C[C@@H]3CO4)C(C)C)C2)cn2c(C)ncc12)C(C)C studysystem="MV-4-11 (carrying MLL-AF4)" grouplabel=Satisfied
compound="COCCN(C)CCCC(C(C)C)N1CC(c2cc(-c3ccc(F)cc3C(=O)N(CC(F)F)C(C)C)c3cnc(C)n3c2)C1 (centres unmarked)" studysystem="MV-4-11 (carrying MLL-AF4)" grouplabel=Satisfied
compound=Cc1nc(F)c2c(-c3ccc(F)cc3C(=O)N3[C@H](C)COC[C@H]3C)cc(C3CN(CC4CCN(CC5(O)CCOCC5)CC4)C3)cn12 studysystem="MV-4-11 (carrying MLL-AF4)" grouplabel=Satisfied
compound=CCN(C(=O)c1cc(F)ccc1-c1cc([C@H]2CC[C@@H](NCc3ccc(-c4cc(OC)c(OC)nn4)cc3)CC2)cn2cncc12)C(C)C studysystem="MV-4-11 (carrying MLL-AF4)" grouplabel="Not satisfied"

----------
- studySystem: Menin-MLL (Homo sapiens, UniProt O00255)
- Construct: His-Menin (M1-L615 end); purchased BIORTUS BP9210
- Sequence (O00255 1-615 isoform O00255-1): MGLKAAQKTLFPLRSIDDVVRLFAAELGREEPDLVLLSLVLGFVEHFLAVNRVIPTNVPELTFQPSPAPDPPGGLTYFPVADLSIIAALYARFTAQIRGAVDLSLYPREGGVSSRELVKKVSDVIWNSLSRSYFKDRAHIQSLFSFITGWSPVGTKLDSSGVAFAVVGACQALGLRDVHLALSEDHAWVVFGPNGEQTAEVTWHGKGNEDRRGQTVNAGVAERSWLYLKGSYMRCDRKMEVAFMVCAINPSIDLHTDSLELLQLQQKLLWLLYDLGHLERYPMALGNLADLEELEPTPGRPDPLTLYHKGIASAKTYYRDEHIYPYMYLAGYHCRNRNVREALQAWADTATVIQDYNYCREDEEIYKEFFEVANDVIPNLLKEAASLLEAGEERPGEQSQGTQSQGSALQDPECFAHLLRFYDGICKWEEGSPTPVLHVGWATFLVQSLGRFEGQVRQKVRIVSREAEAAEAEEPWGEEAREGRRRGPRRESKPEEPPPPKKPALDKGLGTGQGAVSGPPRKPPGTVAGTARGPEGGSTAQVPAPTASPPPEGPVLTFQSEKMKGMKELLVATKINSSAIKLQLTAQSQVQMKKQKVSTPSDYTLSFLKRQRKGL
- experimentSummary: Inhibitory activity against Menin-MLL binding (fluorescence polarization)
- recordedConditions: Menin-MLL IC50, fluorescence polarization; 150 nM His-Menin, 15 nM FITC-MLL; 25°C for 60 min
pIC50: −log10 of the molar value.
parameterMeasured: pIC50

molecule=CC[C@@H](C)[C@H](NC)C(=O)N1CC(c2cc(-c3ccc(F)cc3C(=O)N(CC)C(C)C)c3c(F)nc(C)n3c2)C1 parametermeasured=pIC50 observedvalue=7.41
molecule="CCN(C(=O)c1cc(F)ccc1-c1cc(N2CCN(C(=O)C3NC4CCC3CC4)CC2)cn2c(C=O)ncc12)C(C)C (stereo not drawn)" parametermeasured=pIC50 observedvalue=7.40
molecule="CCS(=O)(=O)N[C@H]1CC[C@H](CN2CCCC(c3cc(-c4ccc(F)cc4C(=O)N(CC(F)F)C(C)C)c4cnn(C)c4c3)C2)CC1 (stereo partly drawn)" parametermeasured=pIC50 observedvalue=7.22
molecule=CCS(=O)(=O)N[C@H]1CC[C@H](CN2CC(c3cc(-c4ccc(F)cc4C(=O)N4CCOC[C@H]4C)c4cnn(C)c4c3)C2)CC1 parametermeasured=pIC50 observedvalue=7.16
molecule="CCN(C(=O)c1cc(F)ccc1-c1cc(C2CN(C(CCCN3CCNC(CC#N)C3)C(C)C)C2)cn2c(C)ncc12)C(C)C (stereo not drawn) [Example 498]" parametermeasured=pIC50 observedvalue=8.55
molecule=CCS(=O)(=O)N[C@H]1CC[C@H](CN2CC(c3cc(-c4ccc(F)cc4C(=O)N(CC(F)F)C(C)C)c4cnn(C)c4c3)C2)CC1 parametermeasured=pIC50 observedvalue=7.51
molecule=CCN(C(=O)c1cc(F)ccc1-c1cc(N2CCN(C(=O)[C@@H]3CCCCN3)CC2)cn2c(C)ncc12)C(C)C parametermeasured=pIC50 observedvalue=6.73
molecule="CCN(C(=O)c1cc(F)ccc1-c1cc(C2CCN(C[C@H]3CC[C@H](NS(=O)(=O)CC)CC3)C2)cc2cncn12)C(C)C (mixture of isomers)" parametermeasured=pIC50 observedvalue=7.72
molecule=CCN(C(=O)c1cc(F)ccc1-c1cc(C2CN([C@H](CCCN3CCC(C#N)(CO)CC3)C(C)C)C2)cn2c(C)ncc12)C(C)C parametermeasured=pIC50 observedvalue=8.72
